Where do the numbers come from? From patent US11629146B2.

Biological target: UniProtKB Q9UQD0
Experiment: INaL inhibition at hNaV1.6, PatchXpress electrophysiology
Assay type: cell-based
Conditions: HEK293; 1 μM; HEK-293 cells expressing hNaV1.6; late current evoked by 300 nM ATX-II; read-out: INaL v1.6 (1 μM, % Inhibition)
READOUT: inhibition at 1 µM

N#CC1(c2ccc(-c3ccc4nnc(C(F)(F)F)n4n3)cc2)CC1 [Compound 12]; > 70%
CC(Oc1ncc(-c2cn3c(C(F)(F)F)nnc3cn2)cc1F)C(F)(F)F (stereo not drawn) [Compound 133]; > 70%
FC(F)(F)OCc1ccc(-c2cn3c(C(F)(F)F)nnc3cn2)cc1 [Compound 149]; > 70%
OCc1ccc(-c2ccc3nnc(C(F)F)n3n2)cc1 [Compound 169]; < 30%
Fc1cc(-c2ccc3nnc(C4CC(F)(F)C4)n3n2)cnc1OCC(F)(F)F [Compound 83]; 30 to 70%
FC(F)(F)COc1ccc(-c2ccc3nnc(CC(F)(F)F)n3n2)cn1 [Compound 7]; 30 to 70%
COc1cc(C2(C#N)CC2)ccc1-c1ccc2nnc(C(F)(F)F)n2n1 [Compound 22]; > 70%
FC1(F)CC(Oc2ccc(-c3cn4c(C(F)(F)F)nnc4cn3)cn2)C1 [Compound 86]; 30 to 70%
FC(F)Oc1ccc(-c2ccc3nnc(C(F)(F)F)n3n2)cc1 [Compound 116]; > 70%
FC(F)(F)Oc1ccc(-c2cn3c(C[C@H]4CCCCO4)nnc3cn2)cc1 [Compound 129]; < 30%

Ask | Give the measured inhibition at 1 µM of COCc1cc(C(F)(F)F)ccc1-c1cn2c(C(F)(F)F)nnc2cn1 [Compound 113] .
Reply | > 70%

Ask | What do you get for Cc1cc(-c2ccc3nnc(C(F)(F)F)n3n2)ccc1OC(F)(F)F [Compound 2] ?
Reply | > 70%

###

Biological target: human NaV1.5 late sodium current (INaL) (Homo sapiens (Human), UniProt Q14524)
Sequence (Q14524 whole entry): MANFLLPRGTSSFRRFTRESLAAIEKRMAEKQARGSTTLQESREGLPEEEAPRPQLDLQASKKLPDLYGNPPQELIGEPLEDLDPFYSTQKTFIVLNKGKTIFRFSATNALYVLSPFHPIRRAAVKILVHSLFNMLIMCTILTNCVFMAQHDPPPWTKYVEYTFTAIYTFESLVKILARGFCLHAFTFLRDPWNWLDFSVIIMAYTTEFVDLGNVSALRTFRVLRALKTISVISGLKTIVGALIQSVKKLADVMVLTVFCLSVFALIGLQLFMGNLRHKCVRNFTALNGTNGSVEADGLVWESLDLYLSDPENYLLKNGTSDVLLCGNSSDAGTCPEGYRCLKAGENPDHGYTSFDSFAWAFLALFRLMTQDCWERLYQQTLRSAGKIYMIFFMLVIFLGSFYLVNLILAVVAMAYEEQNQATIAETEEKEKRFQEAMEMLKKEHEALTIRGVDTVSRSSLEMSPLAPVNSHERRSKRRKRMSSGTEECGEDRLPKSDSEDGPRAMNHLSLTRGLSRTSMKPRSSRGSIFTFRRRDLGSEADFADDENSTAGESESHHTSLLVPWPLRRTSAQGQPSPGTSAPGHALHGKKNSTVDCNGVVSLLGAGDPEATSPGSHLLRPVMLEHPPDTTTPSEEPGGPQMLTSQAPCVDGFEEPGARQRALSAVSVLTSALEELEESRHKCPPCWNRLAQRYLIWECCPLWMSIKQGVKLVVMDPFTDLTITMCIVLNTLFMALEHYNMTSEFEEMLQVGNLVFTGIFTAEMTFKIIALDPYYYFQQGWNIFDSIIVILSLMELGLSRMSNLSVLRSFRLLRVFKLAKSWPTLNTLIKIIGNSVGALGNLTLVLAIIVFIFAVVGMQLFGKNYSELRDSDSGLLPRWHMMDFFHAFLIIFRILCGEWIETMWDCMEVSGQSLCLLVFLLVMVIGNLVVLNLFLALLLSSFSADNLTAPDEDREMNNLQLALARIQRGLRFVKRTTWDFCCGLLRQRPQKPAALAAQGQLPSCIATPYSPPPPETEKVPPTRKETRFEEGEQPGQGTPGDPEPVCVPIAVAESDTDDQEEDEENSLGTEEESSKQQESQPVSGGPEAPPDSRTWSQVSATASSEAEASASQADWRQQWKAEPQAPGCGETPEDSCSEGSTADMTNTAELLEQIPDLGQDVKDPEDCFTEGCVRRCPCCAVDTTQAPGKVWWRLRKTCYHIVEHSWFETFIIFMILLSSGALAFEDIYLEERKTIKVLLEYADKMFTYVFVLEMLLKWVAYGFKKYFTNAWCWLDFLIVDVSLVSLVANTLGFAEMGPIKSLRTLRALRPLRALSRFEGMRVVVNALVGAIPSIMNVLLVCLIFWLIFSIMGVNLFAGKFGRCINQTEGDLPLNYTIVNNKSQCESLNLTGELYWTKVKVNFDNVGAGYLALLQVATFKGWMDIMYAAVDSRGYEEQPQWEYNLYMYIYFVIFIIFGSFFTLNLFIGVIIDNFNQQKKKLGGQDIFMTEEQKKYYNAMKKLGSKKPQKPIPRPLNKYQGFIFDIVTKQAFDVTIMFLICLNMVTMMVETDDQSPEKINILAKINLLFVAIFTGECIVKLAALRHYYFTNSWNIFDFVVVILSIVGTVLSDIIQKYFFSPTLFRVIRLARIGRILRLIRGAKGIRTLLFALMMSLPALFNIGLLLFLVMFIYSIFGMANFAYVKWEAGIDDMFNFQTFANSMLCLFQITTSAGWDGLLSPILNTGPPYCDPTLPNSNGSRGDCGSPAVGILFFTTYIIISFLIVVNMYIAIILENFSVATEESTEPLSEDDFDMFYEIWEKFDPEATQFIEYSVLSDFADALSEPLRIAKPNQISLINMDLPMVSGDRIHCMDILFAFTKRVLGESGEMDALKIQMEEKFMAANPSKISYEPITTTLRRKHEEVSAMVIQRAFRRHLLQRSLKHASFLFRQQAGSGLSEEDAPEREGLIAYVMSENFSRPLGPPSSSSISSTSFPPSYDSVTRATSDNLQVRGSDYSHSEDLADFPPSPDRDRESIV
Test: INaL inhibition at hNaV1.5, PatchXpress electrophysiology
Assay type: cell-based
Settings: HEK-293 cells expressing recombinant human NaV1.5, HEK-293 cells expressing hNaV1.5, late current evoked by 300 nM ATX-II, read-out: INaL v1.5 (1 μM, % Inhibition)
Parameter inhibition at 1 µM: see the listing below.

Answered cases to consult:
FC1(F)CC(c2nnc3ccc(-c4ccc(OC(F)(F)F)cc4)nn23)C1; > 50%
Cc1cc(C(F)(F)F)ccc1-c1ccc2nnc(C(F)(F)F)n2n1; > 50%

Okay, next one:
Ask | Give the measured inhibition at 1 µM of Fc1ccc(OC(F)(F)F)cc1-c1ccc2nnc(C(F)(F)F)n2n1 .
Reply | < 50%

###

Molecular target: human NaV1.6 (hNaV1.6) (Homo sapiens (Human), UniProt Q9UQD0)
Sequence (Q9UQD0 whole entry): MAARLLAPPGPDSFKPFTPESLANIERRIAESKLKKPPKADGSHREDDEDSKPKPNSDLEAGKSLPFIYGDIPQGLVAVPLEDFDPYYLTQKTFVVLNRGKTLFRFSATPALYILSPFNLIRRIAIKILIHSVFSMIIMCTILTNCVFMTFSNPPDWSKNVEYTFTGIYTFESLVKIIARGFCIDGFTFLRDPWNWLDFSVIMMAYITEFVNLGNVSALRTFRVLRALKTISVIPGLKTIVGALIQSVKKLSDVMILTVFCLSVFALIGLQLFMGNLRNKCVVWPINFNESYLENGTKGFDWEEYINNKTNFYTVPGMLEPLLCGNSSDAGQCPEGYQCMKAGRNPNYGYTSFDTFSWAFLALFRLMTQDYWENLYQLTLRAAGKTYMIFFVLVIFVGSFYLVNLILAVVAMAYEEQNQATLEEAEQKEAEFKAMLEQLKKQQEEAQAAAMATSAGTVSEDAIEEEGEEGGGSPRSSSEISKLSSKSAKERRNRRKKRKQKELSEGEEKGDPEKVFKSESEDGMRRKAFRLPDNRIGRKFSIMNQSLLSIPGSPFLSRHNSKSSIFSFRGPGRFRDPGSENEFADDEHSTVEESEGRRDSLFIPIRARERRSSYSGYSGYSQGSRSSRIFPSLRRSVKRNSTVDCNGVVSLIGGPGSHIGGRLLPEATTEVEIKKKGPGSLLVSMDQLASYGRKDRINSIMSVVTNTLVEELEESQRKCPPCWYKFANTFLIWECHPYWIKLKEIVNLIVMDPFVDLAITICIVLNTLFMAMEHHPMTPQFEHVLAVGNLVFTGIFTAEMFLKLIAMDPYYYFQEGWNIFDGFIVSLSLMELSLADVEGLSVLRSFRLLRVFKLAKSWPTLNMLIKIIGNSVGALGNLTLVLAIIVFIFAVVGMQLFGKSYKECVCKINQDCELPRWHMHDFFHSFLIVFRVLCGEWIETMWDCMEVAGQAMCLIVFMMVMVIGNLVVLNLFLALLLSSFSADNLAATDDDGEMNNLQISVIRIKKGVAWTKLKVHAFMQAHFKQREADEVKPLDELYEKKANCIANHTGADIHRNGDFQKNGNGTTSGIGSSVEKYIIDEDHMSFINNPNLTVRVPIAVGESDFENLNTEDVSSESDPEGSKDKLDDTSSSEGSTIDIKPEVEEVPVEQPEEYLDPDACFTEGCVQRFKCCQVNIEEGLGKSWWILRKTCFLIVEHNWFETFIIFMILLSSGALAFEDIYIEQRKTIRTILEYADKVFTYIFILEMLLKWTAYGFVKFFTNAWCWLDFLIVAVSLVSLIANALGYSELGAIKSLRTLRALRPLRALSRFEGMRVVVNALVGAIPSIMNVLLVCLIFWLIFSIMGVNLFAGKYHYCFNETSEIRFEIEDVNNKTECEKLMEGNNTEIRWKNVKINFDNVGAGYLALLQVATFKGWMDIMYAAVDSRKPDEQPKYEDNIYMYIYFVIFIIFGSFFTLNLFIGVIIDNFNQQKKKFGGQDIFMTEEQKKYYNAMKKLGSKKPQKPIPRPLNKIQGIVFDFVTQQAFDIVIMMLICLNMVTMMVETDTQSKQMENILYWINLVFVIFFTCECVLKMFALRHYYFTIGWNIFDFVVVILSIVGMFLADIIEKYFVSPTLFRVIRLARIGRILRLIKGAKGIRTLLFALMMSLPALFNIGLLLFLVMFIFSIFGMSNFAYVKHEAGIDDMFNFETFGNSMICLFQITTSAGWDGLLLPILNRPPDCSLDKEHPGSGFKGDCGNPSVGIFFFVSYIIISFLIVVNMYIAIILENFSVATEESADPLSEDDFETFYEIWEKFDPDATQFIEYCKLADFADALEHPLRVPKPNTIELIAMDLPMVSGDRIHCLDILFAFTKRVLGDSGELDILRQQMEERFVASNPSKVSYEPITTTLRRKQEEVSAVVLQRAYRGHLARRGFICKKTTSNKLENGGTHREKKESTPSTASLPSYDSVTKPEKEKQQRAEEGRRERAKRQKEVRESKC
Assay: INaL inhibition at hNaV1.6, PatchXpress electrophysiology
Format: cell-based
Details: HEK293; 1 μM; HEK-293 cells expressing hNaV1.6; late current evoked by 300 nM ATX-II; read-out: INaL v1.6 (1 μM, % Inhibition)
Method: Functional characterization of exemplary compounds to modulate INaL expressed by the Nay 1.6 voltage-gated sodium channel was accomplished using the PatchXpress™ high throughput electrophysiology platform (Molecular Devices, Sunnyvale, Calif.). […] INaL amplitude and stability were determined by analyzing the mean current amplitude over the final 20 ms of the test pulse. […]
Parameter inhibition at 1 µM: see the listing below.

Ask | Give the measured inhibition at 1 µM of Fc1ccc(OC(F)(F)F)cc1-c1ccc2nnc(C(F)(F)F)n2n1 .
Reply | < 30%

Ask | What do you get for FC(F)(F)Oc1ccc(-c2cn3c(C[C@@H]4CCCCO4)nnc3cn2)cc1 ?
Reply | 30 to 70%

Ask | What do you get for OCc1cc(-c2ccc3nnc(C(F)(F)F)n3n2)ccc1OC(F)(F)F ?
Reply | 30 to 70%
